- Test system: T-47D breast
- protocol_text: NCI-60 one-dose screen, 48 h
- condition_info: 10 µM unless noted
This is part of a sample that, as a whole, favours compounds with a hit. Of some 83,000 tested, about 20% had one in any assay. The source made the active and inactive calls. The calls were made as follows: active = growth percent below 10; inactive = the rest.
Pick one and only one: active, inactive

Nc1nc2c(c3cnccc13)C(c1ccc(Cl)c(Cl)c1)Cc1cnccc1-2 (configuration not stated) = inactive
COc1cc([C@@H]2c3cc4c(cc3[C@H](O)[C@H]3COC[C@@H]23)OCO4)cc(OC)c1OC = inactive
O=C(NCCO)C(F)(F)F = inactive

Please share the test call associated with "Cc1ccccc1-n1c(C)nc2cc(NC(=O)c3ccc(Cl)cc3)ccc2c1=O" . inactive

How did this test come out for "Br/C(=N\Nc1nn[nH]n1)c1ccccc1" ? inactive

Per the assay record, what outcome was assigned to "CC(=O)Nc1ccc(CC#N)cc1Br" ? inactive

###

- Test system: TK-10 renal
- protocol_text: NCI-60 one-dose screen, 48 h (100 = growth as untreated, 0 = no growth, -100 = all killed)
- condition_info: 10 µM unless noted
The panel holds about 83,000 compounds, 20% with a hit somewhere; the sample as a whole holds those more often.
measured_parameter: growth (%)
Numbers only here, please. The scale is %.

Take a look at these entries with their results.
COc1cc(/C=C/C(=O)/C=C(/C=C/c2ccc(OC(C)=O)c(OC)c2)OB(F)F)ccc1OC(C)=O = 80.7
O=C1c2cc([N+](=O)[O-])ccc2-c2cc(Cl)c(NC(=O)C(F)(F)F)cc21 = 129
Cc1ccc(C(=O)NN)cc1 = 110
C/C=C/C/C=C/[C@H](C)C[C@H](O)[C@@H]1C[C@@H]2O[C@H]2/C=C/[C@@H]2OC(C)(C)O[C@H]2/C=C/C[C@H](C)CC(=O)O1 = 18.8
CCCCCCCCCCC1OC(C)CC(C)O1 (stereo not given) = 100

// below: growth requested for another molecule
growth lookup needed for "CC1(C)NCCC[C@]2(C)[C@H]3CC=C4[C@@H]5C[C@](C)(COC(=O)c6ccccc6C(=O)O)CC[C@]5(C)CC[C@@]4(C)[C@]3(C)CC[C@@H]12" , thanks. 36

###

- System: PC-3 prostate
- protocol_text: NCI-60 one-dose screen, 48 h (100 = growth as untreated, 0 = no growth, -100 = all killed)
- condition_info: 10 µM unless noted
Compounds without any hit were thinned out: in the full panel of roughly 83,000, 20% have a hit. Activity calls are given as the source filed them. The calls were made as follows: active = growth percent below 10; inactive = the rest.
Entries and their growth

CC(=O)OC1/C=C\CC/C=C\C1 (stereo unspecified) = 96.4% (inactive)
CCCCCCCCCCCCCCCCNC(=O)Nc1ccc(C)c(NC(=O)NCCCCCCCCCCCCCCCC)c1 = 84.5% (inactive)
CC1(C)Oc2cc3oc(=O)ccc3cc2C[C@@H]1OCCOS(=O)(=O)c1ccc(C#N)cc1 = 87.3% (inactive)

// lookup growth | system=PC-3 prostate | key= CCOC(=O)C1=C(c2ccccc2)NC(=O)NC1CN1C(=O)c2ccccc2C1=O (stereo unspecified) 100% (inactive)

Notebook: pull reported growth for PC-3 prostate, entry CC1(C)C(O)NC(Cl)=C(C#N)C1(C#N)C#N (stereo unspecified) 114% (inactive)

Can you look up growth on PC-3 prostate for "FC(F)(F)c1cccc(-c2[nH]ncc2-c2nnnn2-c2ccccc2)c1" ? 44% (inactive)

Form entry - test system: PC-3 prostate; read-out: growth; molecule: "COc1ccc(-c2nnc(SCC(=O)Nc3ccc(C(=O)/C=C/c4cc(OC)c(OC)c(OC)c4)cc3)n2-c2ccccc2)cc1OC" 10.9% [100 µM] (inactive)

So what growth did "Cc1nnc(/N=C2\NC(=O)/C(=C/C=C/c3ccccc3)S2)s1" get with PC-3 prostate? 39.2% (inactive)

Which measured growth belongs to "CCN(CC)CCOC(=O)c1cccnc1" , tested on PC-3 prostate? 99.7% (inactive)

Write down the reported growth of "O=C(O)c1occ(Cl)c1Cl" , test system: PC-3 prostate. 109% (inactive)

Missing value: growth, PC-3 prostate, entry O=C(O)CS(=O)c1ccc(Cl)cc1 (stereo unspecified) . Fill in? 110% (inactive)

Could you share what growth was measured for "Cc1cc2c(-c3nc4ccccc4[nH]3)c(O)c(O)cc2c(O)c1-c1c(C)cc2c(-c3nc4ccccc4[nH]3)c(O)c(O)cc2c1O" , tested on PC-3 prostate? 6.02% (active)

Test system PC-3 prostate; read-out growth; what value for "O=C(O)COc1ccc([N+](=O)[O-])cc1Cl" ? 97.6% (inactive)

###

- System: SF-295 CNS
- protocol_text: NCI-60 one-dose screen, 48 h (100 = growth as untreated, 0 = no growth, -100 = all killed)
- condition_info: 10 µM unless noted
Compounds without any hit were thinned out: in the full panel of roughly 83,000, 20% have a hit.
Sorting guide: entries reporting growth beneath 80% go in the 1 pile, the rest go in the -1 pile.

Oc1ccc(CN(Cc2ccc(C(F)(F)F)cc2)Cc2ccc(O)c3ncccc23)c2cccnc12 = 1
C[C@@H](c1ccc2c(c1)[nH]c1ccc(Cl)cc12)c1nc2ccc(Cl)cc2[nH]1 = -1
Cc1ccc2c(c1)C(=O)CCS2 = -1
CC(=O)OCC1O[C@@H](OC(C)=O)[C@@H](NC(=O)NS(=O)(=O)c2ccccc2)C(OC(C)=O)[C@@H]1OC(C)=O (stereo partly drawn) = -1
O=C1/C(=N\c2cc(=O)[nH]n2S(=O)(=O)c2ccccc2)Nc2ccccc21 = -1

Below 80% on growth? Entry "Nc1nc(-c2cccc(Br)c2)cc(-c2cc3ccccc3oc2=O)n1" -1

Item "COc1ccc2c(N)ncc(C#Cc3cc(C(=O)Nc4ccc(CN5CCN(C)CC5)c(C(F)(F)F)c4)cnc3C)c2c1" : growth beneath 80%, strictly? 1

Quick check: growth of "CCCCCCCCCCCCCCCC[n+]1cccc(C#N)c1" under 80%? -1

# strict comparison: is reported growth < 80%? input = "CCC(C)(C)c1ccc(OCCCCCCN2CCNCC2)cc1" -1

Decide: growth of "COCC(=O)NNc1[nH]c(-c2ccc(OC)cc2)cc1C#N" strictly below 80%? -1

growth under 80%? Item: "COc1ccc2c(c1)/C(=C/c1c(-c3cc(OC)c(OC)c(OC)c3)nc3sccn13)C(=O)N2" -1

Strictly below 80% in growth? "COc1cc2ncnc(-n3ncc4cc(NC(=O)Nc5ccccc5)ccc43)c2cc1OC" 1

###

- Test system: UO-31 renal
- protocol_text: NCI-60 one-dose screen, 48 h (100 = growth as untreated, 0 = no growth, -100 = all killed)
- condition_info: 10 µM unless noted
The panel holds about 83,000 compounds, 20% with a hit somewhere; the sample as a whole holds those more often.
measured_parameter: growth (%)
Kindly answer with a numeric value in %, unit omitted.

O=C(O)CC1Cc2ccccc2C1C(=O)O (centres undefined) = 79.6
NC(N)=N/N=C/c1cccc(Br)c1 = 79.5
CCN(CC)c1ccc2nc3ccc(N=Nc4ccc(O)cc4)cc3[n+](-c3ccccc3)c2c1 = 48.5

Attention now shifts to the item below.
Can you share its growth? I mean this compound: "O=C(Cc1ccccc1[N+](=O)[O-])c1ccc2c(c1)OCO2" 80.1

###

- Test system: K-562 leukemia
- protocol_text: NCI-60 one-dose screen, 48 h (100 = growth as untreated, 0 = no growth, -100 = all killed)
- condition_info: 10 µM unless noted
This is part of a sample that, as a whole, favours compounds with a hit. Of some 83,000 tested, about 20% had one in any assay. Calls of active or inactive are those of the source. How the source made its calls: active means growth percent below 10; inactive means the rest.
growth reference

# count of solved cases: 3
CC1(C)C(O)NC(Cl)=C(C#N)C1(C#N)C#N (centres undefined) = 94.4% (inactive)
O=C(c1ccccc1)c1ccccc1-c1ccccc1 = 14.5% (inactive)
CC1(C)N=C(N)N=C(N)N1c1cccc(CCCCOc2ccccc2)c1 = 16.2% (inactive)

Now look at this one.
Quick one: growth of "N=C(N)c1ccc(-c2ccc(-c3ccc(F)cc3)s2)cc1" ? -62.9% (active)

###

- Tested on: MCF7 breast
- protocol_text: NCI-60 one-dose screen, 48 h (100 = growth as untreated, 0 = no growth, -100 = all killed)
- condition_info: 10 µM unless noted
Compounds without any hit were thinned out: in the full panel of roughly 83,000, 20% have a hit.
# reported growth; entries follow
Report only the number, with the unit % understood.

Use the examples below as a reference point.
CCCCCCCCC1OC1CCCCCCCC(=O)O (stereo not given) = 101
COc1ccc(-c2nc(N)n(C(=S)Nc3ccccc3)n2)cc1 = 89.1
Oc1ccc2ccccc2c1/C=N\Nc1ccccn1 = 2.43
COc1cc2ncnc(Nc3ccc4c(cnn4C(=O)Nc4ccccc4)c3)c2cc1OC = 60.4
COC(=O)c1ccc2[nH]c(O)c(C(=Nc3ccc(N(C)C(=O)CN4CCN(C)CC4)cc3)c3ccc(C)cc3)c2c1 = -67.8
c1ccc(-c2cn3ccnc3c(-c3ccc4ncn(C5CCCCC5)c4c3)n2)cc1 = 62
CCOc1ccc(N(C)c2ccc(/C=C/C3=[N+](C)c4ccccc4C3(C)C)cc2)cc1 = 10.1
Cc1c(Cc2ccccc2)c(=O)oc2c(C)c(OCc3n[nH]c(=S)o3)ccc12 = 14.5
Br/C(=N\Nc1nn[nH]n1)c1ccccc1 = 95.3
COC(=O)C(Cc1cnc[nH]1)N1CC(=O)N2[C@@H](c3ccccc3)SC[C@H]2C1=O (stereo not given in full) = 106

I would be grateful if you could share the reported growth for CCCCCCC(C)N(CC(C)(C)O)C(=O)c1ccc([N+](=O)[O-])cc1 (stereo not given) . 97.6

State the recorded growth for this entry: CCOC(=O)C1=C(C(F)(F)F)NC(=O)NC1CN1C(=O)c2ccccc2C1=O (stereo not given) 108

// returns reported growth for input CCCCCCCCCC(C)NC(=O)CCl (stereo not given) 86.2

Item under review: "CCOc1ccc2nc3ccc(Cl)cc3nc2c1" . Reported growth? 92.3
